- System: Enterobacter cloacae
- procedure.text: Antibacterial activity against Enterobacter cloacae
- Assay type: functional
Quick reference for MIC50 among some molecules
Your answer is read as µg/mL, so omit the unit and give the number.

Worked examples follow.
molecule=Cc1c(N2CC[C@@H]([C@H](C)N)C2)c(F)cc2c(=O)n(N)c(=O)n(C3CC3)c12 units_symbol=µg/mL experimental_result=1
molecule=C[C@H]1NCc2cc(-c3ccc4c(=O)c(C(=O)O)cn(C5CC5)c4c3OC(F)F)ccc21 units_symbol=µg/mL experimental_result=0.125
molecule="COc1c(N2CCNC(C)C2)c(F)cc2c(=O)c(C(=O)O)cn(C3CC3)c12 (stereo not given)" units_symbol=µg/mL experimental_result=0.06
molecule=C[C@H]1COc2c(N3CCN(C)CC3)c(F)cc3c(=O)c(C(=O)O)cn1c23.C[C@H]1COc2c(N3CCN(C)CC3)c(F)cc3c(=O)c(C(=O)O)cn1c23.O units_symbol=µg/mL experimental_result=0.06

Please turn your attention to the following entry.
// query Fill in MIC50 for Cc1c(N2CC[C@@H]([C@H](C)N)C2)c(F)cc2c(=O)[nH]c(=O)n(C3CC3)c12 tested with Enterobacter cloacae.
// result 2

====

- System: Pseudomonas aeruginosa
- procedure.text: Antibacterial activity against Pseudomonas aeruginosa
- Type: functional
assay.metric: MIC90 (µg/mL)
Your answer is read as µg/mL, so omit the unit and give the number.

Worked examples follow.
compound="COc1c(N2CCNC(C)C2)c(F)cc2c(=O)c(C(=O)O)cn(C3CC3)c12 (stereo not given)" assay_metric=MIC90 experimental_result=64
compound=Cc1c(N2CC[C@@H]([C@H](C)N)C2)c(F)cc2c(=O)n(N)c(=O)n(C3CC3)c12 assay_metric=MIC90 experimental_result=32

Please turn your attention to the following entry.
// query Specify MIC90 for C[C@H]1COc2c(N3CCN(C)CC3)c(F)cc3c(=O)c(C(=O)O)cn1c23.C[C@H]1COc2c(N3CCN(C)CC3)c(F)cc3c(=O)c(C(=O)O)cn1c23.O and stop.
// result 64

====

- System: Citrobacter koseri
- procedure.text: Antibacterial activity against Citrobacter diversus
- Assay type: functional
assay.metric: MIC50 (µg/mL)
Your answer is read as µg/mL, so omit the unit and give the number.

Worked examples follow.
compound="COc1c(N2CCNC(C)C2)c(F)cc2c(=O)c(C(=O)O)cn(C3CC3)c12 (stereo not given)" experimental_result=0.03
compound=Cc1c(N2CC[C@@H]([C@H](C)N)C2)c(F)cc2c(=O)n(N)c(=O)n(C3CC3)c12 experimental_result=1
compound=C[C@H]1NCc2cc(-c3ccc4c(=O)c(C(=O)O)cn(C5CC5)c4c3OC(F)F)ccc21 experimental_result=0.125
compound=Cc1c(N2CC[C@@H]([C@H](C)N)C2)c(F)cc2c(=O)[nH]c(=O)n(C3CC3)c12 experimental_result=2

Please turn your attention to the following entry.
// query Specify MIC50 for C[C@H]1COc2c(N3CCN(C)CC3)c(F)cc3c(=O)c(C(=O)O)cn1c23.C[C@H]1COc2c(N3CCN(C)CC3)c(F)cc3c(=O)c(C(=O)O)cn1c23.O and stop.
// result 0.03

====

Quick reference for MIC90 among some molecules
- Tested on: Streptococcus mitis
- procedure.text: Antibacterial activity against Streptococcus mitis
- Assay type: functional
Your answer is read as µg/mL, so omit the unit and give the number.

molecule="C[C@H]1COc2c(N3CCN(C)CC3)c(F)cc3c(=O)c(C(=O)O)cn1c23.C[C@H]1COc2c(N3CCN(C)CC3)c(F)cc3c(=O)c(C(=O)O)cn1c23.O [LEVOFLOXACIN]" target_entity="Streptococcus mitis" units_symbol=µg/mL experimental_result=1

// query Fill in MIC90 for Cc1c(N2CC[C@@H]([C@H](C)N)C2)c(F)cc2c(=O)[nH]c(=O)n(C3CC3)c12 tested with Streptococcus mitis.
// result 0.06

// query Fill in MIC90 for C[C@H]1NCc2cc(-c3ccc4c(=O)c(C(=O)O)cn(C5CC5)c4c3OC(F)F)ccc21 [GARENOXACIN] tested with Streptococcus mitis.
// result 0.25

// query Fill in MIC90 for Cc1c(N2CC[C@@H]([C@H](C)N)C2)c(F)cc2c(=O)n(N)c(=O)n(C3CC3)c12 tested with Streptococcus mitis.
// result 0.03

// query Fill in MIC90 for COc1c(N2CCNC(C)C2)c(F)cc2c(=O)c(C(=O)O)cn(C3CC3)c12 (stereo not given) [GATIFLOXACIN] tested with Streptococcus mitis.
// result 0.5
